Listed next: entries and their corresponding pIC50.
Target: B-Raf (Homo sapiens)
Sequence (P15056 whole entry): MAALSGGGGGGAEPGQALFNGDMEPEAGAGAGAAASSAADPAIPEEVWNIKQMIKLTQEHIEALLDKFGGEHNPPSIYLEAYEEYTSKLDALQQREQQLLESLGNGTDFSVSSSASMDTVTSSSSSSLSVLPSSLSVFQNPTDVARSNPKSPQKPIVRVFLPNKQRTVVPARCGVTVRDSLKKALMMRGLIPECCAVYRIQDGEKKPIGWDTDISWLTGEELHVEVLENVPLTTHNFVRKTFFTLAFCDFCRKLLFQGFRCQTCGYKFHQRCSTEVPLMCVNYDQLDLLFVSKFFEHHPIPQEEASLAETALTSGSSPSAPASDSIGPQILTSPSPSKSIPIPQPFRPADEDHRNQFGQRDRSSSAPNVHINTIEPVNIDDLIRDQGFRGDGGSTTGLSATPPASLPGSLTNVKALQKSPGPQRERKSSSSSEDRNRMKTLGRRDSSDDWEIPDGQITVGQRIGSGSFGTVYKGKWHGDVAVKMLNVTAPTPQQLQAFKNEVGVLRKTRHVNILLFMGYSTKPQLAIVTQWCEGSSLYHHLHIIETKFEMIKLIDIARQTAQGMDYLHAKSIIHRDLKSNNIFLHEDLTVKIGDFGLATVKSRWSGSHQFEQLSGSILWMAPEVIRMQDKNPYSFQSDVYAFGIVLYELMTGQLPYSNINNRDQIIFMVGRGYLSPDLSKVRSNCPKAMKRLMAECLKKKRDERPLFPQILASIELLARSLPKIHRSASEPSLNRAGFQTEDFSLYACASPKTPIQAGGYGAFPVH
Assay: Luciferase-coupled chemiluminescence kinase assay (ATP consumption), B-Raf
Type: biochemical
Conditions: read-out: bRaf (inhibition indicated as IC50)
Experimental: Tyrosine kinase activity is determined by 1) measurement of kinase-dependent ATP consumption by in the presence of a generic substrate such as […], tyrosine (pEY), by luciferase/luciferin-mediated chemiluminescence or; 2) incorporation of radioactive phosphate derived from ^33P-ATP into a generic substrate which has been adsorbed onto the well surface of polystyrene microtiter plates. Phosphorylated substrate products are quantified by scintillation spectrometry. […]
pIC50: −log10 of the molar value.
quantity: pIC50

# compound, quantity, reported
measured = [
    ("CCOC(=O)Nc1nc2cc(C(=O)c3ccccc3C(=O)OCc3ccccc3)ccc2o1", "pIC50", "5.00 to 6.00"),
    ("Cc1cccc(N2C(=O)c3ccccc3C2(O)c2ccc3nc(Nc4ncccn4)[nH]c3c2)c1 (stereo not shown)", "pIC50", "> 7.00"),
    ("COC(=O)Nc1nc2cc(C3(O)c4ccccc4C(=O)N3CC3CCCN3)ccc2[nH]1 (stereo not shown)", "pIC50", "5.00 to 6.00"),
    ("COC(=O)Nc1nc2cc(C3(O)c4ccccc4C(=O)N3c3cccc(C(C)(C)C)c3)ccc2[nH]1 (stereo not shown)", "pIC50", "> 7.00"),
    ("COC(=O)Nc1nc2cc(C(=O)c3ccccc3C(=O)NNc3ccccc3)ccc2[nH]1", "pIC50", "6.00 to 7.00"),
    ("COC(=O)Nc1nc2cc(C3(O)c4ccccc4C(=O)N3c3cc(OC)ccc3C)ccc2[nH]1 (stereo not shown)", "pIC50", "> 7.00"),
    ("CC(C)(C)OC(=O)N1CCC(COC(=O)Nc2nc3cc(C4(O)c5ccccc5C(=O)N4Cc4ccccc4)ccc3[nH]2)CC1 (stereo not shown)", "pIC50", "6.00 to 7.00"),
    ("C#Cc1cc(N2C(=O)c3ccccc3C2(O)c2ccc3[nH]c(NC(=O)OC)nc3c2)c(F)cc1F (stereo not shown)", "pIC50", "> 7.00"),
    ("COC(=O)Nc1nc2cc(C3(O)c4ccccc4C(=O)N3c3cc(Cl)ccc3C)ccc2[nH]1 (stereo not shown)", "pIC50", "> 7.00"),
    ("O=C(Nc1nc2ccc(C3(O)c4ccccc4C(=O)N3c3cccc(Cl)c3F)cc2[nH]1)OCCCN1CCCCC1 (stereo not shown)", "pIC50", "5.00 to 6.00"),
    ("C#Cc1cccc(N2C(=O)c3ccccc3C2(O)c2ccc3[nH]c(Nc4ncccn4)nc3c2)c1F (stereo not shown)", "pIC50", "> 7.00"),
    ("C#Cc1cccc(N2C(=O)c3ccccc3C2c2ccc3[nH]c(NC(=O)OC)nc3c2)c1F (stereo not shown)", "pIC50", "> 7.00"),
    ("CN1CCCCC1COC(=O)Nc1nc2ccc(C3(O)c4ccccc4C(=O)N3c3cccc(Cl)c3F)cc2[nH]1 (stereo not shown)", "pIC50", "> 7.00"),
    ("COC(=O)Nc1nc2ccc(C(=O)c3ccccc3C(=O)Nc3cc(C)ccc3F)cc2[nH]1", "pIC50", "> 7.00"),
    ("O=C1c2ccccc2C(O)(c2ccc3[nH]c(Nc4ccccc4)nc3c2)N1c1cccc(Cl)c1F (stereo not shown)", "pIC50", "5.00 to 6.00"),
    ("COC(=O)Nc1nc2ccc(C(=O)c3ccccc3C(=O)NCc3ccsc3)cc2[nH]1", "pIC50", "> 7.00"),
]

----------
Target: c-Raf (Homo sapiens)
Sequence (P04049 whole entry): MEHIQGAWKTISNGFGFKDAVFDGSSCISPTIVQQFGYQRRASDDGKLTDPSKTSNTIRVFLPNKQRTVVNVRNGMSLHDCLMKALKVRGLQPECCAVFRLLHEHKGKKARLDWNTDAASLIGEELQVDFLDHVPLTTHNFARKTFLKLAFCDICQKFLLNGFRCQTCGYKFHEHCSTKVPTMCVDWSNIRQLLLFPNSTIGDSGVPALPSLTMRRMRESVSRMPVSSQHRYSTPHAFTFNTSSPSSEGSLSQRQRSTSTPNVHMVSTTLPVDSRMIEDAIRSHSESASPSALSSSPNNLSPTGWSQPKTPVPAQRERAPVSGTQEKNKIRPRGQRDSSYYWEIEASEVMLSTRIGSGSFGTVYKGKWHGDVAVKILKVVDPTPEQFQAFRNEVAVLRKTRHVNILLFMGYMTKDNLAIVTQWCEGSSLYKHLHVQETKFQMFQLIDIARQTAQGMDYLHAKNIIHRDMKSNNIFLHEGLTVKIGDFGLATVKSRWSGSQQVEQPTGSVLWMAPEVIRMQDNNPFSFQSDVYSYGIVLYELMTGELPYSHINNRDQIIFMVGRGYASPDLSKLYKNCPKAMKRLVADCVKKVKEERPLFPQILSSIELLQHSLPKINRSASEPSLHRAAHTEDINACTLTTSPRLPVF
Experiment: Luciferase-coupled chemiluminescence kinase assay (ATP consumption), c-Raf
Format: biochemical
Settings: read-out: cRaf-1 IC50
pIC50: −log10 of the molar value.
The entries below are paired with their reported pIC50.

# compound, pIC50
rows = [
    ("COC(=O)Nc1nc2cc(C3(O)c4ccccc4C(=O)N3c3ccc(F)c(F)c3)ccc2[nH]1 (stereo not drawn)", "> 7.00"),
    ("COC(=O)Nc1nc2cc(C3(O)c4ccccc4C(=O)N3CC3CCCCC3)ccc2[nH]1 (stereo not drawn)", "> 7.00"),
    ("COC(=O)Nc1nc2cc(C3(O)c4ccccc4C(=O)N3c3ccc(F)c(Br)c3)ccc2[nH]1 (stereo not drawn)", "> 7.00"),
]

----------
Target: UniProtKB P15056
Assay: Luciferase-coupled chemiluminescence kinase assay (ATP consumption), B-Raf
Type: biochemical
Settings: read-out: bRaf (inhibition indicated as IC50)
pIC50: −log10 of the molar value.

# molecule, pIC50
measured = [
    ("C#Cc1c(F)ccc(N2C(=O)c3ccccc3C2(O)c2ccc3[nH]c(NC(=O)OC)nc3c2)c1F (stereo not shown) [Entry 353]", "> 7.00"),
    ("COC(=O)Nc1nc2cc(C3(O)c4ccccc4C(=O)N3c3ccccc3Oc3ccccc3)ccc2[nH]1 (stereo not shown) [Entry 342]", "6.00 to 7.00"),
    ("COC(=O)Nc1nc2cc(C3(O)c4ccccc4C(=O)N3c3cccc(I)c3F)ccc2[nH]1 (stereo not shown) [Entry 362]", "> 7.00"),
    ("O=C1c2ccccc2C(O)(c2ccc3[nH]c(Nc4nccs4)nc3c2)N1c1cccc(Cl)c1F (stereo not shown) [Entry 356]", "> 7.00"),
    ("COC(=O)Nc1nc2cc(C3(O)c4ccccc4C(=O)N3c3cc(Cl)cc(I)c3C)ccc2[nH]1 (stereo not shown) [Entry 358]", "6.00 to 7.00"),
    ("CCN(CC)C(=O)CCCC(=O)Nc1nc2cc(C3(O)c4ccccc4C(=O)N3c3cccc(Cl)c3F)ccc2[nH]1 (stereo not shown) [Entry 343]", "> 7.00"),
    ("CN1CCC(COC(=O)Nc2nc3cc(C4(O)c5ccccc5C(=O)N4c4cccc(Cl)c4F)ccc3[nH]2)CC1 (stereo not shown) [Entry 316]", "> 7.00"),
]

----------
Measured pIC50 accompanies every entry in the list below.
Target: B-Raf (Homo sapiens)
Test: Luciferase-coupled chemiluminescence kinase assay (ATP consumption), B-Raf
Format: biochemical
Conditions: read-out: bRaf IC50
pIC50: −log10 of the molar value.

# molecule, pIC50
records = [
    ("O=C1COc2ccc(C3(O)c4ccccc4C(=O)N3c3cc(F)cc(I)c3)cc2N1 (stereo not drawn)", "5.00 to 6.00"),
    ("COC(=O)Nc1nc2cc(C3(O)c4ccccc4C(=O)N3c3cccc(OCCN(C)C)c3)ccc2[nH]1 (stereo not drawn)", "5.00 to 6.00"),
    ("COC(=O)Nc1nc2cc(C3(O)c4ccccc4C(=O)N3C(C)c3cccc(Cl)c3C)ccc2[nH]1 (stereo not drawn)", "5.00 to 6.00"),
    ("COC(=O)Nc1nc2cc(C3(O)c4ccccc4C(=O)N3C3Cc4ccccc4C3)ccc2[nH]1 (stereo not drawn)", "≤ 5.00"),
    ("COC(=O)Nc1nc2cc(C3(O)c4ccccc4C(=O)N3C(C)c3cc(Cl)cs3)ccc2[nH]1 (stereo not drawn)", "> 7.00"),
    ("CC(C)COC(=O)Nc1nc2cc(C3(O)c4ccccc4C(=O)N3Cc3ccccc3)ccc2[nH]1 (stereo not drawn)", "6.00 to 7.00"),
]

----------
Examples of molecules with documented IC50 follow.
Biological target: UniProtKB P04049
Test: Luciferase-coupled chemiluminescence kinase assay (ATP consumption), c-Raf
Type: biochemical
Conditions: read-out: cRaf-1 (inhibition indicated as IC50)

# molecule, IC50
data = [
    ("COC(=O)Nc1nc2cc(C3(O)c4ccccc4C(=O)N3c3cccc(Cl)c3C)ccc2[nH]1 (stereo not shown) [Entry 284]", "< 100 nM"),
    ("COC(=O)Nc1nc2ccc(C(=O)c3ccccc3C(=O)Nc3cccc(Cl)c3)cc2[nH]1 [Entry 395]", "< 100 nM"),
    ("CCc1cccc(N2C(=O)c3ccccc3C2(O)c2ccc3[nH]c(NC(=O)OC)nc3c2)c1F (stereo not shown) [Entry 359]", "< 100 nM"),
    ("C#Cc1cccc(N2C(=O)c3ccccc3C2(O)c2ccc3[nH]c(Nc4ncccn4)nc3c2)c1F (stereo not shown) [Entry 364]", "< 100 nM"),
    ("COC(=O)Nc1nc2cc(C(=O)c3ccccc3NC(=O)OCc3ccccc3)ccc2[nH]1 [Entry 270]", "1000 to 10000 nM"),
    ("COC(=O)Nc1nc2cc(C3(O)c4ccccc4C(=O)N3c3cccc(C(C)(C)C)c3)ccc2[nH]1 (stereo not shown) [Entry 346]", "< 100 nM"),
    ("COC(=O)Nc1nc2cc(C3(O)c4ccccc4C(=O)N3c3cc(C)ccc3F)ccc2[nH]1 (stereo not shown) [Entry 380]", "< 100 nM"),
    ("COC(=O)Nc1nc2ccc(C(=O)c3ccccc3C(=O)Nc3cccc(C(F)(F)F)c3)cc2[nH]1 [Entry 398]", "< 100 nM"),
    ("COC(=O)Nc1nc2cc(C3(O)c4ccccc4C(=O)N3c3cc(Cl)cc(F)c3F)ccc2[nH]1 (stereo not shown) [Entry 299]", "< 100 nM"),
    ("O=C(Nc1nc2cc(C3(O)c4ccccc4C(=O)N3c3ccc(F)cc3)ccc2[nH]1)OCCN1CCCCC1 (stereo not shown) [Entry 283]", "< 100 nM"),
    ("O=C(Nc1nc2ccc(C3(O)c4ccccc4C(=O)N3c3cccc(Cl)c3F)cc2[nH]1)OCC(F)F (stereo not shown) [Entry 331]", "< 100 nM"),
    ("COC(=O)Nc1nc2ccc(C3CCC(=O)N3c3cccc(Br)c3)cc2[nH]1 (stereo not shown) [Entry 313]", "1000 to 10000 nM"),
    ("COC(=O)Nc1nc2cc(C3c4ccccc4C(=O)N3c3cccc(Br)c3)ccc2[nH]1 (stereo not shown) [Entry 281]", "< 100 nM"),
    ("COC(=O)Nc1nc2cc(C(=O)c3ccccc3C(=O)NNc3ccccc3)ccc2[nH]1 [Entry 271]", "100 to 1000 nM"),
    ("C#Cc1cccc(N2C(=O)c3ccccc3C2(O)c2ccc3[nH]c(NC(=O)OC)nc3c2)c1F (stereo not shown) [Entry 282]", "< 100 nM"),
    ("COc1cc(C)nc(Nc2nc3cc(C4(O)c5ccccc5C(=O)N4c4cccc(Cl)c4F)ccc3[nH]2)n1 (stereo not shown) [Entry 387]", "< 100 nM"),
    ("CCOC(=O)Nc1nc2cc(C3(O)c4ccccc4C(=O)N3c3cccc(Cl)c3F)ccc2o1 (stereo not shown) [Entry 357]", "100 to 1000 nM"),
    ("COC(=O)Nc1nc2ccc(C(=O)c3ccccc3C(=O)Nc3ccc(F)c(C)c3)cc2[nH]1 [Entry 408]", "< 100 nM"),
    ("O=C(Nc1nc2ccc(C3(O)c4ccccc4C(=O)N3c3cccc(Cl)c3F)cc2[nH]1)OCCN1CCCC1=O (stereo not shown) [Entry 323]", "< 100 nM"),
    ("O=C1c2ccccc2C(O)(c2ccc3[nH]c(=O)[nH]c3c2)N1c1cccc(Cl)c1F (stereo not shown) [Entry 306]", "1000 to 10000 nM"),
    ("CN1CCC(COC(=O)Nc2nc3cc(C4(O)c5ccccc5C(=O)N4c4cccc(Cl)c4F)ccc3[nH]2)CC1 (stereo not shown) [Entry 316]", "< 100 nM"),
    ("C#Cc1cccc(N2C(=O)c3ccccc3C2c2ccc3[nH]c(NC(=O)OC)nc3c2)c1F (stereo not shown) [Entry 377]", "< 100 nM"),
    ("COC(=O)Nc1nc2ccc(C3(O)c4c(F)cccc4C(=O)N3c3cccc(Cl)c3F)cc2[nH]1 (stereo not shown) [Entry 347]", "< 100 nM"),
    ("COC(=O)Nc1nc2ccc(C(=O)c3ccccc3NC(=O)c3ccccc3)cc2[nH]1 [Entry 289]", "1000 to 10000 nM"),
    ("COC(=O)Nc1nc2ccc(C(=O)c3ccccc3C(=O)Nc3cccc(OC)c3)cc2[nH]1 [Entry 397]", "< 100 nM"),
    ("CC(C)(CN1CCCCC1)C(=O)Nc1nc2ccc(C3(O)c4ccccc4C(=O)N3Cc3ccccc3)cc2[nH]1 (stereo not shown) [Entry 286]", "1000 to 10000 nM"),
    ("COC(=O)Nc1nc2ccc(C3(O)c4ccccc4C(=O)N3c3cccc(C)c3F)cc2[nH]1 (stereo not shown) [Entry 390]", "< 100 nM"),
    ("COC(=O)Nc1nc2cc(C3(O)c4ccccc4C(=O)N3c3cc(Br)ccc3C)ccc2[nH]1 (stereo not shown) [Entry 305]", "< 100 nM"),
    ("O=C1c2ccccc2C(O)(c2ccc3[nH]c(Nc4ccccn4)nc3c2)N1c1cccc(Cl)c1F (stereo not shown) [Entry 332]", "< 100 nM"),
    ("O=C(Nc1nc2cc(C3(O)c4ccccc4C(=O)N3c3cccc(Cl)c3F)ccc2[nH]1)OCCN1CCCCC1 (stereo not shown) [Entry 293]", "< 100 nM"),
    ("O=C1c2c(F)ccc(F)c2C(O)(c2ccc3[nH]c(Nc4ncccn4)nc3c2)N1c1cccc(Cl)c1F (stereo not shown) [Entry 379]", "< 100 nM"),
]
